Data origin: the supplement of paper PMC12764529

Assay Info: folding stability dG unfold from trypsin proteolysis; higher = more stable
Measured folding stability dG unfold by item
Quantity: folding stability dG unfold (kcal/mol)

Construct Sequence: SAGGSAGGSAGGEKTIVISEEEAEKLAKELEKKGLTVERKPDGTLKVNGKEIRIIVVEPSAGGSAGGSAGGS [r10_930_TrROS_Hall]
Quantity: folding stability dG unfold
Result: 0.758
//
Construct Sequence: MKAHVTVVDLEDRYRARIELELPDGRVLVFEFEFDSWEEAIEFIRGLIAALPEDEVEIDHIEFLPPDGDPSS [r1_169_TrMRF]
Quantity: folding stability dG unfold
Result: 3.92
//
Construct Sequence: SAGMVRIETYTHPDGTLRLVVYRPETGERAVFEFPLEDPEKFREAVEELAERLREEGFPVEVDIRPTLPSAG [r5_815_TrMRF]
Quantity: folding stability dG unfold
Result: 3
//
Construct Sequence: SAGGSAMTKVTVTFDPVTGTYTIKTTDSKGPSEYPLPKSFLEKTPLSEVAKKLNLNISEFTIEPNPSAGGSA [r15_801_JUSTAS]
Quantity: folding stability dG unfold
Result: 0.771
//
Construct Sequence: SAGGSAGGSAGGSIVVETKKNPGPERVVTVKLPDGTPLADVPVSPDEDPEEAVKRALELGSAGGSAGGSAGG [r7_444_JUSTAS]
Quantity: folding stability dG unfold
Result: 0.0908
//
Construct Sequence: MKVVFTEEELPDAKVRKVFDPETGTITETVTYPSTSYTVTSTATITSFDPETGKVTITTTVSAPPEAGIPAS [r1_234_JUSTAS]
Quantity: folding stability dG unfold
Result: 1.87
//
Construct Sequence: SAGTELELEAEAEVLFPELGTRARVRVRARVRPTEDEVEVELEVEAEFEPLPLVPPIVSPEENPELAEGSAG [r14_435_TrMRF]
Quantity: folding stability dG unfold
Result: 3.19
//
Construct Sequence: SAGGSAGGSAGGLPNIPGFVLLETYSETFNVPLPENRTATITKTLILHPNALLESYSINPSAGGSAGGSAGG [r7_945_TrMRF]
Quantity: folding stability dG unfold
Result: -0.198
//
Construct Sequence: SAGGMKSETIPLTTPEGVPFEVTITTENGKVTVTITPLDPSAPEEVVEAVRAAVEARAAAAGKTVTLVSAGG [r13_774_JUSTAS]
Quantity: folding stability dG unfold
Result: 1.47
//
Construct Sequence: SAMELEFETDGSVSVEELIEEFKKAFPLVKEIEAEAEPIPYIPKYKVRFKIKLVPVPTPEEIEEFGKKKSAG [r14_645_TrMRF]
Quantity: folding stability dG unfold
Result: 1.02
//
Construct Sequence: SAMRILIEFDSPEEAEEALRKLVEEAGLVLEEIKVEIAPAKVTTTTPDGKKVTKTKYFALAEIKLSKKESAG [r14_773_TrMRF]
Quantity: folding stability dG unfold
Result: 1.47
//
Construct Sequence: SAGGMPEDMKLKFKVVDFRPHPHPDGYQIVELFYNDKLLRRLRVPPGLAVKLAKELPEDVALVTLPESAGGS [r8_41_TrMRF]
Quantity: folding stability dG unfold
Result: 0.828
//
Construct Sequence: SAGGSAGGSGVSSVRPVALPGGRVLVLEYFSSTGKVRVTTLTVGDGRPARAESVTPVTPESILSAGGSAGGS [r12_961_JUSTAS]
Quantity: folding stability dG unfold
Result: 0.598
//
Construct Sequence: SAGGSAGGSAGMLLLTFPERGISYEIKLGDKEEEREADPEEVEKLIAELPNYEVKEVELLSAGGSAGGSAGG [r11_57_JUSTAS]
Quantity: folding stability dG unfold
Result: 0.559
